B1: glmS ribozyme (parent)
chain: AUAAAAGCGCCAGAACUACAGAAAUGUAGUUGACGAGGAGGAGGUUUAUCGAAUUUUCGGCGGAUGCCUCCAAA

variants of: B1; test: self-cleavage kobs at 40 uM GlcN6P; higher = faster cleavage; RNA array; settings: with glucosamine-6-phosphate
This sample holds only a part of the variants without activity.
Recorded Metric: self-cleavage kobs at 40 uM GlcN6P

If you can, please state the reported self-cleavage kobs at 40 uM GlcN6P value of C16U A48U G62U .
< 1e-05 s⁻¹

Now the variant G9A A15G U30C
< 1e-05 s⁻¹

Now the variant C58U U69G
2.63e-05 s⁻¹
